- ASSAY OVERVIEW: chemical genetic growth profiling, strain panel (AID 1159580);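 note: tested at 20 µM; growth read once vehicle control cultures reached saturation at 30 °C; lower values mean less growth of the strain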
- ASSAY SETUP: S. cerevisiae deletion strains, growth OD, locus YEL061C, strain CIN8 (second series)
Structures can show the parent of a compound that is named as a salt. Out of some 5,500 compounds screened, about 2,000 (36%) were called active. About 18% were inconclusive and are not listed. Cut-off read from the data, not from the text of the source: active = normalized growth mostly below about 0.91 (no sharp cut-off); inconclusive = no clear call, values can overlap the other calls; inactive = mostly above about 0.92. The list shows a part of the results. Where a SMILES comes first, the peptide text is derived from it. The star is where a group is joined. Tfa = O=C(C(F)(F)F)*
Labels: TRUE (active), FALSE (inactive)

compound=COc1cc(-c2coc3cc(OC)c(OC)c(OC)c3c2=O)cc(OC)c1OC assigned_label=FALSE
compound=CC(C)NC[C@H](O)COc1cccc2ccccc12 assigned_label=FALSE
compound=COc1ccc(-c2coc3cc(OC)cc(OC)c3c2=O)cc1 assigned_label=FALSE
compound=CC[N+](CC)(CC)CCOc1cccc(OCC[N+](CC)(CC)CC)c1OCC[N+](CC)(CC)CC assigned_label=FALSE
compound=COc1cc2occ(-c3ccccc3)c(=O)c2c(OC)c1C assigned_label=FALSE
compound=N[C@@H](CC(=O)N1CCn2c(nnc2C(F)(F)F)C1)Cc1cc(F)c(F)cc1F assigned_label=FALSE
compound="C=CCCCCCCCCCCCC(O)CC(O)COC(C)=O (stereo not drawn) (tested in a mixture with another compound)" assigned_label=FALSE
compound=O=c1cc[nH]c(=S)[nH]1 assigned_label=FALSE
compound=COc1ccc([C@H]2Oc3cc(OC)cc(OC)c3C[C@H]2O)cc1 assigned_label=FALSE
compound="CC1=CC2C(CC1=O)C(C)=CCC2C(C)C (stereo not drawn)" assigned_label=FALSE
compound=CC(C)(C)CC(C)(C)c1ccc(O)c(Cc2ccc(Cl)cc2Cl)c1 assigned_label=FALSE
compound="C=CC(N)CCC(=O)O (stereo not drawn)" assigned_label=FALSE
compound=Cc1c(S(=O)(=O)O)oc2c1C(=O)C(=O)c1c-2ccc2c1CCCC2(C)C assigned_label=FALSE
compound="COC(=O)C(C)c1ccc(C(=O)c2cccs2)cc1 (stereo not drawn)" assigned_label=FALSE
compound="CC(C)C(NC(=O)C(Cc1ccc(O)cc1)NC(=O)C(NC(=O)C(F)(F)F)C(C)C)C(=O)O (stereo not drawn) (Tfa-Val-Tyr-Val-OH; configuration not given here)" assigned_label=FALSE
compound="C=C1C(=O)OC2CC1C(OC(C)=O)C/C(C)=C/CC/C(C)=C/CC[C@]2(C)O (stereo partly drawn)" assigned_label=FALSE
compound=CCOC(=O)[C@H](CCc1ccccc1)N[C@@H](C)C(=O)N1[C@H](C(=O)O)C[C@@H]2CCC[C@@H]21 assigned_label=FALSE
compound="O=C(C1CCCCC1)N1CC(=O)N2CCc3ccccc3C2C1 (stereo not drawn)" assigned_label=FALSE
compound=Cc1coc2c1C(=O)C(=O)c1c-2ccc2c1CCCC2(C)C assigned_label=TRUE
compound="Nc1ccn(C2O[C@H](CO)[C@@H](O)[C@@H]2O)c(=O)n1 (stereo partly drawn)" assigned_label=FALSE
compound="CC1C[C@H]2CC(=O)[C@H]3CCCN4CCC[C@H]2[C@]34C1 (stereo partly drawn)" assigned_label=FALSE
compound=CC(C)NNC(=O)c1ccncc1 assigned_label=FALSE
compound=COc1cc(OC)c2c(=O)c(-c3ccccc3)coc2c1 assigned_label=FALSE
compound=CC1(C)O[C@H]2[C@H](O)C[C@](O)(C(N)=O)C[C@H]2O1 assigned_label=FALSE
compound="CO/N=C(\\C(=O)NC1C(=O)N2C(C(=O)OC(C)OC(C)=O)=C(COC(N)=O)CSC12)c1ccco1 (stereo not drawn)" assigned_label=FALSE
compound=CN1C(C(=O)Nc2ccccn2)=C(O)c2ccccc2S1(=O)=O assigned_label=FALSE
compound=O=C(Cn1ccnc1[N+](=O)[O-])NCCO assigned_label=FALSE
compound=COc1cc([C@@H]2c3cc4c(c(O)c3C[C@H]3COC(=O)[C@@H]32)OCO4)cc(OC)c1OC assigned_label=FALSE
compound=C[C@H]1COC2=C1C(=O)C(=O)c1c2ccc2c1CCCC2(C)C assigned_label=TRUE
compound="C=C1C(=O)O[C@@H]2C3O[C@]3(C)CC/C=C(\\C)CC[C@@H]12 (stereo partly drawn)" assigned_label=FALSE
compound="CC(C)NCC(O)COc1cccc2ccccc12 (stereo not drawn)" assigned_label=FALSE
compound=CO/N=C(\C(=O)N[C@@H]1C(=O)N2C(C(=O)O)=C(COC(C)=O)CS[C@H]12)c1csc(N)n1 assigned_label=FALSE
compound="C#CCCCCCCCCCCCC(O)CC(O)CO (stereo not drawn)" assigned_label=FALSE
compound=CC(=O)OCC[C@H](C)CCC=C(C)C assigned_label=FALSE
compound="C[C@@H]1C(=O)OC2[C@H](O)C34[C@@H]5OC(=O)[C@@]3(O[C@@H]3OC(=O)[C@H](O)[C@@]34[C@H](C(C)(C)C)[C@H]5O)[C@]21O (stereo partly drawn)" assigned_label=FALSE
compound=COc1ccc(CCN2CCC(Nc3nc4ccccc4n3Cc3ccc(F)cc3)CC2)cc1 assigned_label=FALSE
compound="CCCCCCCCCCCCCCCC(=O)OC1C(SC)OC(C(NC(=O)C2CC(CCC)CN2C)C(C)Cl)C(O)C1O (stereo not drawn)" assigned_label=FALSE
compound="C#CCCCCCCCCCCCC(=O)CC(O)COC(C)=O (stereo not drawn)" assigned_label=FALSE
compound="CC(=O)OCC(OC(C)=O)C(OC(C)=O)C(OC(C)=O)C(OC(C)=O)C(COC(C)=O)OC(C)=O (stereo not drawn)" assigned_label=FALSE
compound="COC(=O)C(O)c1ccccc1 (stereo not drawn)" assigned_label=FALSE
compound=COc1ccc2c(c1)O[C@H]1c3ccc(OC)cc3OC[C@@H]21 assigned_label=FALSE
compound="CCCCN1CCCCC1C(=O)Nc1c(C)cccc1C (stereo not drawn)" assigned_label=FALSE
compound="C#CCCCCCCCCCCCC(O)CC(O)COC(C)=O (stereo not drawn)" assigned_label=TRUE
